Data provenance is paper PMC6359343.

- assay.system: Neuraminidase from Clostridium perfringens (bacterial neuraminidase)
- Type: biochemical
- experimental.setup: Lineweaver–Burk and Dixon plots
readout.kind: Kinetic Mode

Answered cases to consult:
Q: For the compound shown here, CC(C)=CCc1cc(-c2cc(=O)c3c(O)cc(O)c(CC=C(C)C)c3o2)ccc1O [Compound 3, 5,7,4′-trihydroxy-8,3′-diprenyl flavone] , give the reported Kinetic Mode.
Ans: Noncompetitive

Q: For the compound shown here, `COc1ccc(-c2oc3c(c(O)cc4oc(C(C)(C)O)cc43)c(=O)c2O[C@@H]2O[C@@H](C)[C@H](O)[C@@H](O)[C@H]2O)cc1` , give the reported Kinetic Mode.
Ans: Noncompetitive

Q: For the compound shown here, COc1ccc(-c2oc3c(c(O)cc4oc(C(C)(C)OC)cc43)c(=O)c2OC2OC(C)C(O)C(O)C2O)cc1 (stereo not drawn) , give the reported Kinetic Mode.
Ans: Noncompetitive

Q: For the compound shown here, CC(C)=CCc1c(O)cc(O)c2c1OC(c1ccc(O)cc1)C(O)C2=O (stereo not drawn) , give the reported Kinetic Mode.
Ans: Noncompetitive

Q: For the compound shown here, CC(C)=CCc1cc(-c2cc(=O)c3c(O)cc(O)c(CC=C(C)C)c3o2)cc(O)c1O [Compound 1, epimedokoreanin B] , give the reported Kinetic Mode.
Ans: Noncompetitive

Attention now shifts to the item below.
Q: For the compound shown here, COc1ccc(-c2oc3c(CC=C(C)C)c(O)cc(O)c3c(=O)c2O[C@@H]2O[C@@H](C)[C@H](O)[C@@H](O)[C@H]2O[C@@H]2OC[C@@H](O)[C@H](O)[C@H]2O)cc1 [Compound 6, sagittatoside B] , give the reported Kinetic Mode.
Ans: Noncompetitive
